Molecular target: PKN1 (Homo sapiens, UniProt Q16512)
Construct: a mixture of lysates from five cancer cell lines; endogenous in cells
Sequence (Q16512 whole entry): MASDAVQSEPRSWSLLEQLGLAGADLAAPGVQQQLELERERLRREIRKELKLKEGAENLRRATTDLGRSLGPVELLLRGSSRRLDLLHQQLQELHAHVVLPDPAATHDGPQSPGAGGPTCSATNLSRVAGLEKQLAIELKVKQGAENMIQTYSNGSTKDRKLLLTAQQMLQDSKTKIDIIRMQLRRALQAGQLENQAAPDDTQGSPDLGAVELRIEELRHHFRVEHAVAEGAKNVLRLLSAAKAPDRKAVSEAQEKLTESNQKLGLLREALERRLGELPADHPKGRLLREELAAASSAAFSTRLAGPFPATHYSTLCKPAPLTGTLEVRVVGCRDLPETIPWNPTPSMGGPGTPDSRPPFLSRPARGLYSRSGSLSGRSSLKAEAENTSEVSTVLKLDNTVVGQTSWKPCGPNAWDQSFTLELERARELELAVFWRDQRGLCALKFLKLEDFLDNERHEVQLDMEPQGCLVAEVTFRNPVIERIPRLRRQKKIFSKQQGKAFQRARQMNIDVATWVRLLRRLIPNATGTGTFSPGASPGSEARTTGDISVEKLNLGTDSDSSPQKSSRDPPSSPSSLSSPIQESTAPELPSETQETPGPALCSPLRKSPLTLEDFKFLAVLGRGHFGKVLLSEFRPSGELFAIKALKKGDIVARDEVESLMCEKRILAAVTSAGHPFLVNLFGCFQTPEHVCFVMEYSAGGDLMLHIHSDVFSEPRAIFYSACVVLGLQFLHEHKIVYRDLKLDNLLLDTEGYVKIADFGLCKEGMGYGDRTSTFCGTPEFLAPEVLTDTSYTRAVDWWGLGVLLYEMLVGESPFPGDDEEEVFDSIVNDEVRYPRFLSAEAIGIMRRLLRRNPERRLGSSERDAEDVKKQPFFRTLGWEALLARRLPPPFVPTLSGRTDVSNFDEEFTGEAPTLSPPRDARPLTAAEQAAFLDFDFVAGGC
Experiment: Kinobeads full dose-response competition binding: PKN1
Settings: Gene Name PKN1; EC50 with Correction, doses in nM; read-out: apparent Kd
MEASUREMENT_LABEL: Kd (nM)
Answers are plain numbers, in nM.

// query Which Kd value belongs to CCn1c(-c2nonc2N)nc2c(C#CC(C)(C)O)nc(OCCN)cc21 [GSK902056A] ?
// result 92.3

* * *

Target: endogenous kinases and other proteins enriched by Kinobeads from mixed cancer cell lysates (Homo sapiens)
Construct: endogenous in cells
Sequence (P37173 23-567): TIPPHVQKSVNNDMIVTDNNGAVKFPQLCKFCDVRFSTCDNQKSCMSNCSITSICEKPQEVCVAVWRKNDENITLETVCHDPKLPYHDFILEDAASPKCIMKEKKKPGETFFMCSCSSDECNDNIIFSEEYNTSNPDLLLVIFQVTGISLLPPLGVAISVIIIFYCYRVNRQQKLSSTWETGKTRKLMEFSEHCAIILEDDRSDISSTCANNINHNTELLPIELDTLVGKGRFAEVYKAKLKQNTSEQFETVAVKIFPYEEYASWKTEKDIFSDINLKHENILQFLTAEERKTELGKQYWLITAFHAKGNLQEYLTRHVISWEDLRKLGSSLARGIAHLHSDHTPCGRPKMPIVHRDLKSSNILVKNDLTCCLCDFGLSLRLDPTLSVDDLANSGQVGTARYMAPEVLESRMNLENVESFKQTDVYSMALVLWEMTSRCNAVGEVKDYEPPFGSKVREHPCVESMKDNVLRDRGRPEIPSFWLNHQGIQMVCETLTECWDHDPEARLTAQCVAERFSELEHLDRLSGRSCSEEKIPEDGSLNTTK
Test: Kinobeads pulldown, full dose-response (eight doses);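 further: competition with Kinobeads ε after inhibitor preincubation in lysate (5 mg/ml protein) for 45 min at 4 °C, DMSO control, doses 0.3–1,000 nM, label-free LC–MS/MS quantification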
Settings: target TGFBR2; read-out: apparent Kd
MEASUREMENT_LABEL: Kd (nM)
One number for each entry, in nM.

// query // lookup Kd for Cn1cc(-c2nc(N[C@@H]3CCCC[C@@H]3N)c(F)c3c2C(=O)NC3)cn1
// result 2960
